Test system: Candida albicans (Ca)
Protocol description: Minimum inhibitory concentration (MIC) in malt yeast agar
Assay type: cell-based, Candida albicans ATCC 10231
Experimental setup: malt yeast agar; 30° C.; 48 hours for yeast; read-out: Minimum Inhibitory Concentration, Ca
Readout name: MIC (mg/L)
Answers are plain numbers, in mg/L.

As a guide, the following entries are already answered.
| Compound | MIC, mg/L |
| --- | --- |
| N#CC1=C(C#N)Sc2nc3cc(C#N)ccc3nc2S1 [H] | 25 |
| N#CC(C#N)=C1Sc2nc3ccc([N+](=O)[O-])cc3nc2S1 [L] | 10 |
| N#CC1=C(C#N)Sc2nc3cc(C(=O)c4ccccc4)ccc3nc2S1 [V] | 500 |

Next item in the queue.
Task: State its MIC on Candida albicans (Ca): N#CC(C#N)=C1Sc2nc3ccc(C#N)cc3nc2S1 [S]
Result: 500

----------
Consider the following compounds; for each one, report its MIC.
System: Saccharomyces cerevisiae (Sc)
Protocol description: Minimum inhibitory concentration (MIC) in malt yeast agar
Assay type: cell-based, Saccharomyces cerevisiae ATCC 4105
Experimental setup: 48 h, read-out: Minimum Inhibitory Concentration, Sc
One number for each entry, in µg/mL.

| Compound | Readout name | Meas value |
| --- | --- | --- |
| N#CC(C#N)=C1Sc2nc3cc([N+](=O)[O-])c([N+](=O)[O-])cc3nc2S1 [M] | MIC | 2.5 |
| N#CC1=C(C#N)Sc2nc3cc([N+](=O)[O-])c([N+](=O)[O-])cc3nc2S1 [B] | MIC | 25 |
| N#CC1=C(C#N)Sc2nc3cc([N+](=O)[O-])ccc3nc2S1 [A] | MIC | 2.5 |
| Cc1ccc2nc3c(nc2c1)SC(C#N)=C(C#N)S3 [D] | MIC | 25 |

Task: State its MIC on Saccharomyces cerevisiae (Sc): N#CC1=C(C#N)Sc2nc3cc([N+](=O)[O-])c(Cl)cc3nc2S1 [G]
Result: 25

----------
System: Aspergillus niger (An)
Protocol description: Minimum inhibitory concentration (MIC) in malt yeast agar
Type: cell-based, Aspergillus niger ATCC 16404
Experimental setup: malt yeast agar; 30° C.; 72 hours for fungi; read-out: Minimum Inhibitory Concentration, An
Readout name: MIC (µg/mL)
Give bare numbers, in µg/mL.

As a guide, the following entries are already answered.
| Compound | Target of assay | Unit string | MIC |
| --- | --- | --- | --- |
| N#CC1=C(C#N)Sc2nc3cc(Cl)ccc3nc2S1 [C] | Aspergillus niger (An) | µg/mL | 25 |
| N#CC1=C(C#N)Sc2nc3cc(C(F)(F)F)ccc3nc2S1 [K] | Aspergillus niger (An) | µg/mL | 25 |
| N#CC(C#N)=C1Sc2nc3cc(Cl)c([N+](=O)[O-])cc3nc2S1 [Q] | Aspergillus niger (An) | µg/mL | 500 |
| N#CC(C#N)=C1Sc2nc3ccc(Cl)cc3nc2S1 [O] | Aspergillus niger (An) | µg/mL | 500 |
| Cc1ccc2nc3c(nc2c1)SC(=C(C#N)C#N)S3 [N] | Aspergillus niger (An) | µg/mL | 500 |

Would you mind listing MIC for each of the following compounds?
1. N#CC1=C(C#N)Sc2nc3cc(C#N)ccc3nc2S1 [H]
2. COc1ccc2nc3c(nc2c1)SC(C#N)=C(C#N)S3 [J]
3. N#CC1=C(C#N)Sc2nc3cc([N+](=O)[O-])c(Cl)cc3nc2S1 [G]
4. Cc1cc2nc3c(nc2cc1[N+](=O)[O-])SC(=C(C#N)C#N)S3 [R]

Result:
1: 25; 2: 25; 3: 25; 4: 100

----------
Tested on: Candida albicans (Ca)
Protocol description: Minimum inhibitory concentration (MIC) in malt yeast agar
Format: cell-based, Candida albicans ATCC 10231
Experimental setup: malt yeast agar; 30° C.; 48 hours for yeast; read-out: Minimum Inhibitory Concentration, Ca
Consider the following compounds; for each one, report its MIC.
Numbers only, in µg/mL.

Would you mind listing MIC for each of the following compounds?
1. COc1ccc2nc3c(nc2c1)SC(C#N)=C(C#N)S3
2. N#CC1=C(C#N)Sc2nc3cc([N+](=O)[O-])c(Cl)cc3nc2S1

Result:
1: 25; 2: 25

Task: Recorded MIC for N#CC(C#N)=C1Sc2nc3cc(Cl)c([N+](=O)[O-])cc3nc2S1 , please?
Result: 500

----------
Consider the following compounds; for each one, report its MIC.
Tested on: Aspergillus niger (An)
Protocol description: Minimum inhibitory concentration (MIC) in malt yeast agar
Format: cell-based, Aspergillus niger ATCC 16404
Experimental setup: malt yeast agar; 30° C.; 72 hours for fungi; read-out: Minimum Inhibitory Concentration, An

| Molecule | Meas value |
| --- | --- |
| N#CC1=C(C#N)Sc2nc3ccccc3nc2S1 | < 10 µg/mL |

Would you mind listing MIC for each of the following compounds?
1. COC(=O)c1ccc2nc3c(nc2c1)SC(C#N)=C(C#N)S3
2. N#CC(C#N)=C1Sc2nc3ccc(C(=O)c4ccccc4)cc3nc2S1

Result:
< 10 µg/mL
> 500 µg/mL

----------
Consider the following compounds; for each one, report its MIC.
System: Fusarium oxysporum (Fo)
Protocol description: Minimum inhibitory concentration (MIC) in malt yeast agar
Format: cell-based, Fusarium oxysporum ATCC 48112
Experimental setup: malt yeast agar; 30° C.; 72 hours for fungi; read-out: Minimum Inhibitory Concentration, Fo

As a guide, the following entries are already answered.
| Molecule | MIC |
| --- | --- |
| Cc1cc2nc3c(nc2cc1[N+](=O)[O-])SC(=C(C#N)C#N)S3 | > 500 µg/mL |
| Cc1cc2nc3c(nc2cc1[N+](=O)[O-])SC(C#N)=C(C#N)S3 | < 10 µg/mL |
| N#CC(C#N)=C1Sc2nc3ccc(C(=O)c4ccccc4)cc3nc2S1 | > 500 µg/mL |
| N#CC(C#N)=C1Sc2nc3ccccc3nc2S1 | > 500 µg/mL |

Task: Recorded MIC for N#CC1=C(C#N)Sc2nc3cc(C(F)(F)F)ccc3nc2S1 , please?
Result: 25 µg/mL

----------
Test system: Candida albicans (Ca)
Protocol description: Minimum inhibitory concentration (MIC) in malt yeast agar
Type: cell-based, Candida albicans ATCC 10231
Experimental setup: malt yeast agar; 30° C.; 48 hours for yeast; read-out: Minimum Inhibitory Concentration, Ca
Readout name: MIC

As a guide, the following entries are already answered.
| Compound | Meas value |
| --- | --- |
| COC(=O)c1ccc2nc3c(nc2c1)SC(C#N)=C(C#N)S3 [I] | < 10 µg/mL |
| Cc1cc2nc3c(nc2cc1[N+](=O)[O-])SC(=C(C#N)C#N)S3 [R] | > 500 µg/mL |
| Cc1cc2nc3c(nc2cc1[N+](=O)[O-])SC(C#N)=C(C#N)S3 [F] | < 10 µg/mL |

Next item in the queue.
Task: Recorded MIC for N#CC(C#N)=C1Sc2nc3ccc(C(F)(F)F)cc3nc2S1 [T] , please?
Result: > 500 µg/mL

----------
Consider the following molecules; for each one, report its MIC.
System: Candida albicans (Ca)
Protocol description: Minimum inhibitory concentration (MIC) in malt yeast agar
Assay type: cell-based, Candida albicans ATCC 10231
Experimental setup: malt yeast agar; 30° C.; 48 hours for yeast; read-out: Minimum Inhibitory Concentration, Ca
Protocol: The minimum inhibitory concentration (MIC) for the compounds listed in Table I is determined for 9 bacteria, using nutrient agar: and 7 yeast and fungi, using malt yeast agar. A one percent solution of the test compound is prepared in a mixture of acetone and water. […] The inoculation with the yeast and fungi is accomplished as follows. […] The petri plates are incubated at 30° C. and read after 48 hours for yeast and 72 hours for fungi. […]

As a guide, the following entries are already answered.
| Molecule | Target of assay | MIC |
| --- | --- | --- |
| N#CC1=C(C#N)Sc2nc3ccccc3nc2S1 | Candida albicans (Ca) | < 10 µg/mL |
| COc1ccc2nc3c(nc2c1)SC(=C(C#N)C#N)S3 | Candida albicans (Ca) | > 500 µg/mL |

Would you mind listing MIC for each of the following molecules?
1. N#CC(C#N)=C1Sc2nc3ccc(C(=O)c4ccccc4)cc3nc2S1
2. N#CC1=C(C#N)Sc2nc3cc(C(F)(F)F)ccc3nc2S1

Result:
1. > 500 µg/mL
2. < 10 µg/mL

The reported numbers originate from patent US5200409A.
